observedProperty: melting point

Completed entries (count: 3):
CCOCc1nc2c(N)nc3ccccc3c2n1CCOCCNC(=O)NC1CCCCC1 ... 161 to 164 °C
CCOCc1nc2c(N)nc3ccccc3c2n1CCOCCNC(=O)Nc1ccccc1 ... 183 to 186 °C
CCOCc1nc2c(N)nc3ccccc3c2n1CCOCCNC(=O)N1CCOCC1 ... 178 to 181 °C

Quick one: give measured melting point for CCc1nc2c(N)nc3ccccc3c2n1CCOCCNC(=O)NC1CCCCC1 198 to 200 °C

Give me measured melting point, please, for this compound: COCCc1nc2c(N)nc3ccccc3c2n1CCOCCN(C)C(=O)Nc1ccccc1 184.8 to 185.8 °C

Identify measured melting point associated with COCCc1nc2c(N)nc3ccccc3c2n1CCOCCN(C)C(=O)N1CCOCC1 121.8 to 122.3 °C
